So I've got a bunch of molecules here, and I need their growth inhibition values.
Assay: inhibition of 3D7 malaria parasite growth – strain 3D7 (AID 2306);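 also: 0% = DMSO wells and 100% = chloroquine plus artemisinin control wells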
Conditions: P. falciparum 3D7 erythrocytic growth, LDH absorbance, 72 h; at 2 µM; stronger effect = higher value
The source made the active and inactive calls. No rule for the calls is given here.

MOLECULE | growth inhibition
CC(C)Cn1c(Sc2ccc(C#N)c([N+](=O)[O-])c2)nnc1-c1cccs1 | 90% (active)

For every item below, please supply its growth inhibition.
1. O=C(NCCNc1ccnc(Nc2ccc(F)cc2)n1)c1cc2ccccc2s1
2. Cc1cc(S(=O)(=O)N2CCCCC(c3ccc(C(F)(F)F)cc3)=N2)c(Cl)cc1Cl
3. O=C(NCCN1CCCC1)c1cccc(-c2ccc(-c3nc4ccc(F)cc4[nH]3)s2)c1
4. CC1(C)N=C(N)N=C(N)N1OCc1cccc(C#N)c1

// result
["99% (active)", "97% (active)", "100% (active)", "94% (active)"]

For every item below, please supply its growth inhibition.
1. OCCOCCNCc1cccc(C#Cc2cc3ncnc(Nc4ccc(OCc5cccc(F)c5)c(Cl)c4)c3s2)n1
2. c1ccc2c(CNc3nc(NCC4CCCCC4)nc4nc[nH]c34)cccc2c1
3. CCCN(CCC)C(=S)N=Nc1c(O)[nH]c2ccccc12
4. CCCCOc1ccc(C(O)C(CN2CCCCC2)c2ccccc2)cc1 (stereo not given)
5. Cc1ccc(N2CCc3c(-c4cc5cccnc5nc4C)cc(C)nc32)c(Cl)c1

// result
1. 96% (active)
2. 89% (active)
3. 97% (active)
4. 90% (active)
5. 96% (active)

* * *

Molecular target: L-lactate dehydrogenase (Plasmodium falciparum (isolate CDC / Honduras)) (UniProt Q27743)
Sequence (Q27743 whole entry, looked up): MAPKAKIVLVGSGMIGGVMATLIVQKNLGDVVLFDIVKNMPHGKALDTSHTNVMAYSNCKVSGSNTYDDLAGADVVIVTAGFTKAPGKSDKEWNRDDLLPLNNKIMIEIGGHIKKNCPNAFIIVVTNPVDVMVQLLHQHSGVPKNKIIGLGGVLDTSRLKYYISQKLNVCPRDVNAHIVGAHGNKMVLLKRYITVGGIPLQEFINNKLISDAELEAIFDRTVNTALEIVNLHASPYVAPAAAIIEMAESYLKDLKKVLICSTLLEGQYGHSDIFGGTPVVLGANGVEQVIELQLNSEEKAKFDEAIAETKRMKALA
Assay: PfLDH activity inhibition – cell lysate, 3D7 strain, counter-screen for P. falciparum growth inhibition project (AID 2304);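 also: 0% = vehicle and 100% = reference inhibitor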
Conditions: P. falciparum 3D7 crude extract, LDH APAD/NBT absorbance; at 2 µM; stronger effect = higher value
So I've got a bunch of molecules here, and I need their inhibition values.
Answers are plain numbers, in %.

# example entries with known answers
MOLECULE | inhibition [%]
CCn1cnc2c(Nc3cccc([N+](=O)[O-])c3)nc(N3CCC(N4CCCCC4)CC3)nc21 | 3
N#Cc1ccc(CN2CCC(Oc3ccc(NC(=O)c4cccs4)cc3)CC2)cc1 | -3

For every item below, please supply its inhibition.
1. CN(Cc1ccc(NC(=O)CCC2CCN(C(=O)/C=C/c3ccc(Cl)c(Cl)c3)CC2)cc1)C1CCOCC1
2. CCC(=O)c1c(C)n(-c2ncnc3c2nc(C)n3-c2ccc(C)cc2C)c2ccccc12

// result
[0, -2]

For every item below, please supply its inhibition.
1. CCOc1cc(C(=O)NC2CCN(Cc3ccccc3)CC2)ccc1-c1nc2cc(Cl)c(F)cc2[nH]1
2. Cn1nccc1C(=O)NCCNCc1ccc(-c2ccc(-c3nc4ccccc4[nH]3)s2)cc1
3. COc1ccc(-c2cnc(N)c(-c3ccc(O)c(OC)c3)c2)cn1
4. COc1ccc2cc(C(=O)NC3CCC(CCN4CCc5cc(C#N)ccc5C4)CC3)[nH]c2c1 (stereo not given)
5. CC(C)NC(C)(C)CN(Cc1ccc(-c2ccc(C(F)(F)F)cc2)cc1)C(=O)Cn1c(CCc2cccc(F)c2F)nc(=O)c2ccccc21
6. Cc1ccc(O)cc1Nc1ccnc2ccc(C(C)(C)C)cc12
7. Cc1cc(NC(=O)Nc2cccc(Cl)c2Cl)c2ccccc2n1

// result
1. 4
2. -9
3. -1
4. -10
5. 3
6. 3
7. 1

For every item below, please supply its inhibition.
1. Cc1ccc(NC(=O)NC2CCN(c3ccnc4ccccc34)CC2)cc1
2. O=C(/C=C/c1ccc(Cl)cc1)NCCCCCN1CCC(C(=O)Nc2ccc(Cl)cc2)CC1
3. c1ccc(C2CCC(N3CCC(N4CCN(c5ccccc5)CC4)CC3)CC2)cc1 (stereo not given)
4. CN1CCN(CCCN(Cc2ccc(-c3cccc(CNCc4ccc5c(c4)OCO5)c3)cc2)C(=O)Nc2ccccc2)CC1

// result
-6
8
-3
-7

For every item below, please supply its inhibition.
1. COc1ccc(C)c(Nc2ccnc(Nc3ccc(-c4cnc[nH]4)cc3)n2)c1
2. CCc1ccc(NC(=O)c2ccc(CN3CCCN(Cc4cccc(Cl)c4)CC3)cc2)cc1
3. Cc1cnc(Nc2ccccc2)nc1NCCC(=O)Nc1ccccc1
4. O=C(Nc1cc(C(F)(F)F)cc(C(F)(F)F)c1)Nc1cc(C(F)(F)F)cc(C(F)(F)F)c1
5. CN(C)c1ccc(CN2CCC(NC(=O)c3ccc(-c4ccc(N(C)C)cc4)s3)CC2)cc1

// result
1. -1
2. 5
3. 3
4. -7
5. -2

* * *

Target: L-lactate dehydrogenase (Plasmodium falciparum (isolate CDC / Honduras)) (UniProt Q27743)
Assay: PfLDH activity inhibition – cell lysate, 3D7 strain, counter-screen for P. falciparum growth inhibition project (AID 2304);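 also: 0% = vehicle and 100% = reference inhibitor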
Settings: P. falciparum 3D7 crude extract, LDH APAD/NBT absorbance; at 2 µM; stronger effect = higher value
So I've got a bunch of compounds here, and I need their inhibition values.
Numbers only, in %.

# example entries with known answers
COMPOUND | UNIT_TAG | inhibition
Cc1cc(C=C2SC(=Nc3ccccc3)N(C3CCCC3)C2=O)c(C)n1-c1ccc(Cl)cc1 | % | -1
CCOC(=O)CCCc1cc(NC2CCN(C)CC2)nc(Nc2ccc(C)cc2)n1 | % | -2
COc1ccc2nccc([C@@H](O)CN3CCC(NCc4cc5cccnc5[nH]4)CC3)c2n1 | % | -2
COc1ccc(NC(=O)NC2CCN(CCCOc3cc(C)nc4ccccc34)CC2)cc1OC | % | 2
Oc1c(C(Nc2nc3ccccc3s2)c2ccccc2)ccc2cccnc12 (stereo not given) | % | -4

For every item below, please supply its inhibition.
1. O=C(Nc1ccc(C(F)(F)F)cc1)c1ccc(S(=O)(=O)NC2CCN(CC3CCCCC3)C2)cc1 (stereo not given)
2. OCCCCCCNc1ccnc2[nH]c3ccc(I)cc3c12
3. COc1cccc(-c2cc(C(=O)NC3CCC(N4CCC(c5ccccc5C)CC4)CC3)[nH]n2)c1 (stereo not given)
4. CS(=O)(=O)CCNCc1nc(-c2ccc3c(Nc4ccc(Oc5ccccn5)cc4)ccnc3c2)cs1
5. Oc1ccc(Cl)cc1-c1cc(C(F)(F)F)nc(-c2ccccc2)n1

// result
[5, -4, -2, -1, 3]

* * *

Target: Calcium-dependent protein kinase 1 (Plasmodium falciparum (isolate 3D7)) (UniProt P62344)
Sequence (P62344 whole entry, looked up): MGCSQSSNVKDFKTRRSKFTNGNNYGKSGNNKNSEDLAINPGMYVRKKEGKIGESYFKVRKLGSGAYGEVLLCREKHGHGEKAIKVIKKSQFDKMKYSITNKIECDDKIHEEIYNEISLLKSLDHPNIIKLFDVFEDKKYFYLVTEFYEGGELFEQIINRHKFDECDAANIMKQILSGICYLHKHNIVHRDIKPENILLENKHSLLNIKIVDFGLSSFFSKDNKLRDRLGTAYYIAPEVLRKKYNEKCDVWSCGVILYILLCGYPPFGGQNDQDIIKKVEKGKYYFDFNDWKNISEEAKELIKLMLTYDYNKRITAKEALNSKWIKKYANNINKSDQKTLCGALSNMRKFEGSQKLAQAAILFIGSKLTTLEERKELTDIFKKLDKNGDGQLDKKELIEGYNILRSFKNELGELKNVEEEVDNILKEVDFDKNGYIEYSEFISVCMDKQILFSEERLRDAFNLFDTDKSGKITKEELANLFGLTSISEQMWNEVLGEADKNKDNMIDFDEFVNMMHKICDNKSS
Experiment: PfCDPK1 kinase inhibitors, biochemical, TCAMS library (AID 1159585);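 also: inhibitors leave more ATP so luminescence rises with inhibition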
Conditions: recombinant PfCDPK1, Kinase-Glo ATP depletion luminescence
Results with a measured potency or affinity are listed apart. Activity calls are given as the source filed them. No cut-off is given here; in the data, nearly all actives have IC50 up to about 0.98 µM.
QUANTITY_NAME: outcome

# example entries with known answers
MOLECULE | ASSAY_SYSTEM | outcome
CCN(CC)CCN(Cc1ccc(-c2ccc(Cl)cc2)cc1)C(=O)Cn1cc(CN(C)C)c(=O)nc1SCc1ccc(F)cc1 | Calcium-dependent protein kinase 1 (Plasmodium falciparum (isolate 3D7)) (UniProt P62344) | inactive
COc1cccc(NC(=O)NC2CCN(c3ccnc(Nc4cc(OC)c(OC)c(OC)c4)n3)C2)c1 (stereo not given) | Calcium-dependent protein kinase 1 (Plasmodium falciparum (isolate 3D7)) (UniProt P62344) | inactive
Cc1ccc(C=C2SC(=Nc3ccccc3)NC2=O)c(C)c1 | Calcium-dependent protein kinase 1 (Plasmodium falciparum (isolate 3D7)) (UniProt P62344) | inactive
N#Cc1ccc(-c2ccc(C(=O)NCCCCN3CCC(c4nc5ccccc5[nH]4)CC3)cc2)cc1 | Calcium-dependent protein kinase 1 (Plasmodium falciparum (isolate 3D7)) (UniProt P62344) | inactive

// query // lookup outcome for CN1CCN(CCCN(Cc2cccc(-c3cccc(CNCc4ccc5c(c4)OCO5)c3)c2)C(=O)CCC2CCCC2)CC1
// result inactive

* * *

Test: human hepatoma cell viability loss – ATP luminescence, cytotoxicity control for P. falciparum antimalarial project, primary screen (AID 2303);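 also: 0% = DMSO wells and 100% = digitonin-killed cells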
Details: HepG2 viability, 24-48 h, at 10 µM, stronger effect = higher value
# strict inequality: inhibition < 30% yields 1, everything else yields -1

Answered cases to consult:
COMPOUND | DISCRETE_LABEL
CC(C)CN(c1nc(C(=O)NNC(=O)[C@H](CC2CC2)NC(=O)c2cc3cc(OCCN(C)C)ccc3o2)cs1)C1CC1 | 1
CCNc1cc(C(=O)N[C@@H](Cc2ccccc2)[C@H](O)CNCc2cc(OC)cc(OC)c2)cc(N2CCCC2=O)c1 | 1
COc1cccc(NC(=O)NC2CCN(c3ccnc(Nc4cc(OC)c(OC)c(OC)c4)n3)C2)c1 (configuration not stated) | 1
O=C(NC1CC1)c1cnc(N2CCC(Oc3ccc(Cl)cc3)CC2)c(Cl)c1 | 1
COc1ccccc1C1CCN(C2CCC(NC(=O)/C=C/c3cc(C(F)(F)F)ccc3F)CC2)CC1 (configuration not stated) | -1
CCCCNC(=O)[C@H](CC1CCCCC1)NC(=O)c1ccc(O)c(-c2cccc(C(F)(F)F)c2)c1 | 1

// query Does the reported inhibition of Cc1cnc(C(=O)Nc2ccc(-c3cccc(-c4nc5ccccc5[nH]4)c3)cc2)cn1 stay below 30%?
// result -1

// query Ok, now c1csc(-c2nc(N3CCCC3)ncc2-c2ccsc2)n1
// result 1

// query Ok, now Cc1noc(C)c1-c1ccc2c(Nc3ccc([N+](=O)[O-])cc3)c(C(N)=O)cnc2c1
// result 1

// query Ok, now Cc1cccc2[nH]c(-c3cccc(-c4ccc(NC(=O)NCc5cccc(F)c5)cc4)c3)nc12
// result -1

// query Ok, now Cc1ccc(C(=O)Nc2ccc(Nc3ccnc4cc(-c5ccccn5)ccc34)cc2O)cc1
// result -1

// query Ok, now O=C(/C=C/c1cccc(C(F)(F)F)c1)NCCCCCN1CCN(C(=O)Nc2ccc(Cl)c(Cl)c2)CC1
// result 1

// query Ok, now COc1cc2c(cc1N(C(C)C)S(=O)(=O)c1sc3ccc(Cl)cc3c1C)CCNCC2
// result -1

// query Ok, now CC(C)(C)c1ccc(C(=O)Nc2cccc(Nc3c(C(=O)NCc4cccc(C(F)(F)F)c4)cnc4c(O)cccc34)c2)cc1
// result -1

// query Ok, now N#Cc1ccc(-c2ccc(C(=O)NCC3CCN(CCN4CCC(c5ccc6c(c5OCC(N)=O)CCCC6)CC4)CC3)cc2)cc1
// result -1

// query Ok, now COc1ccccc1CNC(=O)CCn1c(=O)[nH]c2ccsc2c1=O
// result 1

// query Ok, now Cn1cncc1C(=O)Nc1ccc(-c2cccc(-c3nc4ccc(C(F)(F)F)cc4[nH]3)c2)cc1
// result -1

// query Ok, now CCN(CC)CCCNc1nccc(N2CCc3ncnc(Nc4ccc(OCc5cccc(F)c5)c(Cl)c4)c3C2)n1
// result -1

// query Ok, now CC(C)c1ccc(NC(=S)NN=Cc2ccccn2)cc1
// result -1

// query Ok, now Cc1ccc2cc(NC(=O)CCCCCCCON3C(N)=NC(N)=NC34CCCCC4)ccc2n1
// result 1

// query Ok, now COc1cccc(C(C)(C)NC[C@@H](O)[C@H](Cc2ccccc2)NC(=O)c2cc(C3CCCC3)cc(N3CCCCS3(=O)=O)c2F)c1
// result 1

// query Ok, now CCCCCCN1CCN(Cc2cccc(NC(=O)c3ccc(Cl)c(Cl)c3)c2)CC1
// result -1

// query Ok, now O=C(Nc1cccc(-c2csc(NC(=O)c3ccc4ccccc4c3)n2)c1)c1ccc2ccccc2c1
// result 1

// query Ok, now CN(Cc1ccc(NC(=O)NC2CCN(C(=O)/C=C/c3ccc(Cl)c(Cl)c3)CC2)cc1)C1CCOCC1
// result 1

// query Ok, now COc1cc(NC(=O)c2ccc(-c3ccc(C(C)=O)cc3)s2)ccc1OCCN1CCCC1
// result -1

// query Ok, now N#Cc1ccc2c(c1)CN(CCCCNC(=O)c1ccc(-c3ccccc3)cc1)CC2
// result 1

// query Ok, now Cc1nnc(-c2ccc3ccccc3c2)c2cn(-c3cccc([N+](=O)[O-])c3)nc12
// result 1

// query Ok, now CN1CCC(Oc2cc(CN3CC[C@H](NC(=O)c4ccc(Cl)c(Cl)c4)C3)ccc2I)C1 (some centres not stated)
// result -1
